# credit: ChEMBL document CHEMBL1151282

- method: Toxicity in brine shrimp after 24 hrs
- Format: organism-based
- experimental_context: artemia, in vivo
observed_property: LC50 at 24 h (µM)

>>> recorded_result("CC(=O)Oc1ccc(-c2oc3cc(OC(C)=O)cc(O)c3c(=O)c2OC(C)=O)cc1")
2210
>>> recorded_result("C[C@@H]1O[C@@H](Oc2cc(O)c3c(=O)c(O)c(-c4ccc(O)cc4)oc3c2)[C@H](OC(=O)/C=C/c2ccc(O)cc2)[C@H](OC(=O)/C=C/c2ccc(O)cc2)[C@H]1O")
400
>>> recorded_result("C[C@@H]1O[C@@H](Oc2cc(O)c3c(=O)c(O)c(-c4ccc(O)cc4)oc3c2)[C@H](OC(=O)/C=C/c2ccc(O)cc2)[C@H](O)[C@H]1O")
570
